For each entry below, report its MIC value.
# System: Enterobactéries Céfotaxime résistantes
Answers are plain numbers, in µg/mL.

Study these solved cases before continuing.
SMILES_NOTATION: Nc1nc(/C(=N/OCc2cc(F)c(O)c(O)c2F)C(=O)N[C@@H]2C(=O)N3C(C(=O)[O-])=C(/C=C/C[n+]4cccc5c4CCC5)CS[C@H]23)cs1
ASSAYED_TARGET: Enterobactéries Céfotaxime résistantes
UNIT_TEXT: µg/mL
MIC: 0.36
--
SMILES_NOTATION: Nc1nc(/C(=N/OCc2cc(F)c(O)c(O)c2F)C(=O)N[C@@H]2C(=O)N3C(C(=O)[O-])=C(/C=C/C[n+]4ccn5ccccc54)CS[C@H]23)cs1
ASSAYED_TARGET: Enterobactéries Céfotaxime résistantes
UNIT_TEXT: µg/mL
MIC: 0.26
--
SMILES_NOTATION: Nc1nc(/C(=N/OCc2cc(Cl)c(O)c(O)c2Cl)C(=O)N[C@@H]2C(=O)N3C(C(=O)[O-])=C(/C=C/C[n+]4cccc5ccccc54)CS[C@H]23)cs1
ASSAYED_TARGET: Enterobactéries Céfotaxime résistantes
UNIT_TEXT: µg/mL
MIC: 0.11
--
SMILES_NOTATION: Nc1nc(/C(=N/OCc2cc(F)c(O)c(O)c2F)C(=O)N[C@@H]2C(=O)N3C(C(=O)[O-])=C(/C=C/C[n+]4cccc5ccccc54)CS[C@H]23)cs1
ASSAYED_TARGET: Enterobactéries Céfotaxime résistantes
UNIT_TEXT: µg/mL
MIC: 0.38
--
SMILES_NOTATION: Nc1nc(/C(=N/OCc2cc(Cl)c(O)c(O)c2Cl)C(=O)N[C@@H]2C(=O)N3C(C(=O)[O-])=C(/C=C/C[n+]4ccn5ccccc54)CS[C@H]23)cs1
ASSAYED_TARGET: Enterobactéries Céfotaxime résistantes
UNIT_TEXT: µg/mL
MIC: 0.19
--
SMILES_NOTATION: Nc1nc(/C(=N/OCc2cc(O)c(O)c(F)c2)C(=O)N[C@@H]2C(=O)N3C(C(=O)[O-])=C(/C=C/C[n+]4cccc5ccccc54)CS[C@H]23)cs1
ASSAYED_TARGET: Enterobactéries Céfotaxime résistantes
UNIT_TEXT: µg/mL
MIC: 0.2

Let's switch to this compound now.
Req: Given the compound Nc1nc(/C(=N/OCc2cc(Cl)c(O)c(O)c2Cl)C(=O)N[C@@H]2C(=O)N3C(C(=O)[O-])=C(/C=C/C[n+]4cccc5c4CCC5)CS[C@H]23)cs1 , what is its reported MIC?
Resp: 0.13
